binding relative to P54AR4-83v2 parent by entry:
biological target: EGFR (form used in the assay not stated) (human, UniProt P00533 25-645, limits assumed); assay: ELISA, NEM conjugate, 100 nM
Measurement label: binding relative to P54AR4-83v2 parent (ratio)

INSERT INTO results (binder, unit_descriptor, observed_measurement) VALUES
  ('P54AR4-83v2 Y28C, NEM conjugate (designed binder, not shown: small tags and cut ends, N-ethyl maleimide (NEM) on Cys 28) LPAPKNLVVSEVTEDSARLSWDDPWAFCESFLIQYQESEKVGEAIVLTVPGSERSYDLTGLKPGTEYTVSIYGVHNVYKDTNMRGLPLSAIFTT', 'ratio', 0.01),
  ('P54AR4-83v2 V12C, NEM conjugate (designed binder, not shown: small tags and cut ends, N-ethyl maleimide (NEM) on Cys 12) LPAPKNLVVSECTEDSARLSWDDPWAFYESFLIQYQESEKVGEAIVLTVPGSERSYDLTGLKPGTEYTVSIYGVHNVYKDTNMRGLPLSAIFTT', 'ratio', 1.06),
  ('P54AR4-83v2 P87C, NEM conjugate (designed binder, not shown: small tags and cut ends, N-ethyl maleimide (NEM) on Cys 87) LPAPKNLVVSEVTEDSARLSWDDPWAFYESFLIQYQESEKVGEAIVLTVPGSERSYDLTGLKPGTEYTVSIYGVHNVYKDTNMRGLCLSAIFTT', 'ratio', 0.93),
  ('P54AR4-83v2 A3C, NEM conjugate (designed binder, not shown: small tags and cut ends, N-ethyl maleimide (NEM) on Cys 3) LPCPKNLVVSEVTEDSARLSWDDPWAFYESFLIQYQESEKVGEAIVLTVPGSERSYDLTGLKPGTEYTVSIYGVHNVYKDTNMRGLPLSAIFTT', 'ratio', 0.88);
